Tested on: Botrytis cinerea
Test: Test E: preventive spray on tomato seedlings, tomato Botrytis disease rating
Assay type: in vivo
Conditions: Botrytis cinerea, 120 h, 50 ppm, 100 = 100% disease control, 0 = no control
pest or weed control at 50 ppm values, listed per item
Answer with a number only, understood to be in %.

Use these answered entries as a reference point.
[
  {
    "chemical.smiles": "COc1ccc(Cl)c(-n2nc(C)c(=O)c(Cl)c2-c2ccc(F)cc2)c1",
    "assay.target": "Botrytis cinerea",
    "measurement.units": "%",
    "pest or weed control at 50 ppm": 98
  },
  {
    "chemical.smiles": "COc1cc(OC)c(Cl)c(-n2nc(C)c(=O)c(C)c2-c2ccc(F)cc2F)c1",
    "assay.target": "Botrytis cinerea",
    "measurement.units": "%",
    "pest or weed control at 50 ppm": 98
  }
]

The reported value for CCn1c(-c2c(F)cc(F)cc2F)c(-c2cc(OC)cc(OC)c2Cl)cc(C#N)c1=O in terms of pest or weed control at 50 ppm is 96

The reported value for CCc1nc(C)nc(-c2cc(OC)cc(OC)c2Cl)c1-c1c(F)cccc1F in terms of pest or weed control at 50 ppm is 96

----------
System: Puccinia recondita f. sp. Tritici
Experiment: Test B: preventive spray on wheat seedlings, wheat leaf rust disease rating
Type: in vivo
Conditions: 50 ppm, 100 = 100% disease control, 0 = no control
Test B disease control rating values, listed per item
Answer with a number only, understood to be in %.

Use these answered entries as a reference point.
[
  {
    "molecule": "COc1cc(OC)c(Cl)c(-n2nc(C)c(=O)c(C)c2-c2ccc(F)cc2Cl)c1 [Compound 84]",
    "test.result": 100
  },
  {
    "molecule": "COc1ccc(Cl)c(-n2nc(Br)c(=O)c(Br)c2-c2ccc(F)cc2Cl)c1 [Compound 102]",
    "test.result": 99
  },
  {
    "molecule": "COc1cc(OC)cc(-c2c(-c3c(F)cc(F)cc3F)noc(=O)c2C)c1 [Compound 60]",
    "test.result": 99
  }
]

Now let's try a different one.
The reported value for COC(=O)c1nn(-c2cc(OC)cc(OC)c2)c(-c2ccc(F)cc2F)c(C)c1=O [Compound 24] in terms of Test B disease control rating is 0

----------
Test system: Zymoseptoria tritici
Assay: Test A: preventive spray on wheat seedlings, wheat leaf blotch disease rating
Type: in vivo
Conditions: Zymoseptoria tritici, 456 h, 50 ppm, 100 = 100% disease control, 0 = no control
attribute.measured: pest or weed control at 50 ppm
Report as: number unit

Use these answered entries as a reference point.
[
  {
    "chemical.smiles": "COc1cc(OC)c(Cl)c(-n2nc(Br)c(=O)c(C)c2-c2ccc(F)cc2Cl)c1",
    "pest or weed control at 50 ppm": "100%"
  },
  {
    "chemical.smiles": "COc1cc(OC)c(Cl)c(-n2nc(C)c(=O)c(C)c2-c2ccc(F)cc2F)c1",
    "pest or weed control at 50 ppm": "100%"
  },
  {
    "chemical.smiles": "COc1cc(OC)cc(-n2nc(C)c(=O)c(C)c2-c2ccc(F)cc2Cl)c1",
    "pest or weed control at 50 ppm": "100%"
  }
]

Reading of pest or weed control at 50 ppm for COc1cc(OC)c(Cl)c(-n2nc(CO)c(=O)c(C)c2-c2ccc(F)cc2F)c1 with Zymoseptoria tritici: 63%

Reading of pest or weed control at 50 ppm for COc1cc(OC)cc(-c2cc(C#N)c(=O)n(C)c2-c2c(F)cc(F)cc2F)c1 with Zymoseptoria tritici: 100%

Reading of pest or weed control at 50 ppm for COc1cc(OC)cc(-n2c(-c3ccc(F)cc3Cl)c(Cl)c(=O)n(C)c2=O)c1 with Zymoseptoria tritici: 0%

----------
Test system: Zymoseptoria tritici
Test: Test A: preventive spray on wheat seedlings, wheat leaf blotch disease rating
Format: in vivo
Conditions: 50 ppm, 100 = 100% disease control, 0 = no control
attribute.measured: Test A disease control rating (%)
Answer with a number only, understood to be in %.

The reported value for COc1cc(OC)cc(-c2c(-c3ccc(F)cc3F)noc(=O)c2C)c1 [Compound 61] in terms of Test A disease control rating is 63

The reported value for Cc1c(-c2nn(C)c(=O)c(C)c2-c2ccc(F)cc2Cl)csc1Br [Compound 15] in terms of Test A disease control rating is 100

The reported value for Cc1c(-c2ccc(F)cc2Cl)c(-c2nn(C)cc2Cl)nn(C)c1=O [Compound 22] in terms of Test A disease control rating is 94

The reported value for Cc1c(-c2ccc(F)cc2Cl)c(-c2ccsc2)nn(C)c1=O [Compound 5] in terms of Test A disease control rating is 100

The reported value for Cc1c(-c2ccc(F)cc2Cl)c(-c2cccs2)nn(C)c1=O [Compound 9] in terms of Test A disease control rating is 100

The reported value for Cc1c(-c2ccc(F)cc2Cl)c(-c2ccc(Br)s2)nn(C)c1=O [Compound 17] in terms of Test A disease control rating is 99

The reported value for Cc1c(-c2ccc(F)cc2Cl)c(-c2cc(Br)sc2Br)nn(C)c1=O [Compound 13] in terms of Test A disease control rating is 99

The reported value for CCn1c(-c2ccc(F)cc2Cl)c(-c2cc(OC)ccc2Cl)cc(C#N)c1=O [Compound 159] in terms of Test A disease control rating is 100

The reported value for COc1ccc(Cl)c(-c2cc(C#N)c(=O)n(C)c2-c2ccc(F)cc2Cl)c1 [Compound 154] in terms of Test A disease control rating is 100

The reported value for Cc1c(-c2ccc(F)cc2Cl)c(-c2ccn(C)n2)nn(C)c1=O [Compound 20] in terms of Test A disease control rating is 0

----------
System: Zymoseptoria tritici
Assay: Test A: preventive spray on wheat seedlings, wheat leaf blotch disease rating
Assay type: in vivo
Conditions: 50 ppm, 100 = 100% disease control, 0 = no control
Source text: General protocol for preparing test suspensions for Tests A-F: the test compounds were first dissolved in acetone in an amount equal to 3% of the final volume and then suspended at the desired concentration (in ppm) in acetone and purified water (50/50 mix by volume) containing 50 to 250 ppm of the surfactant PEG400 (polyhydric alcohol esters). The resulting test suspensions were then used in Tests A-F. The test solution was sprayed to the point of run-off on wheat seedlings. […]
attribute.measured: Test A disease control rating
Report as: number unit

Use these answered entries as a reference point.
[
  {
    "compound": "COc1cc(OC)c(Cl)c(-n2nc(C)c(=O)c(C)c2-c2ccc(F)cc2Cl)c1 [Compound 84]",
    "attribute.measured": "Test A disease control rating",
    "test.result": "100%"
  },
  {
    "compound": "COc1ccc(Cl)c(-n2nc(Br)c(=O)c(Br)c2-c2ccc(F)cc2Cl)c1 [Compound 102]",
    "attribute.measured": "Test A disease control rating",
    "test.result": "97%"
  }
]

Now let's try a different one.
The reported value for COc1cc(OC)cc(-c2cc(C#N)c(=O)n(N)c2-c2c(F)cc(F)cc2F)c1 [Compound 153] in terms of Test A disease control rating is 0%

----------
Tested on: Zymoseptoria tritici
Experiment: Test A: preventive spray on wheat seedlings, wheat leaf blotch disease rating
Format: in vivo
Conditions: 50 ppm, 100 = 100% disease control, 0 = no control
Test A disease control rating values, listed per item
Answer with a number only, understood to be in %.

[
  {
    "compound": "COc1cc(OC)cc(-n2nc(CF)c(=O)c(C)c2-c2ccc(F)cc2Cl)c1 [Compound 90]",
    "assay.target": "Zymoseptoria tritici",
    "measurement.units": "%",
    "Test A disease control rating": 99
  },
  {
    "compound": "COC(=O)c1nn(-c2cc(OC)ccc2Cl)c(-c2ccccc2F)c(Cl)c1=O [Compound 122]",
    "assay.target": "Zymoseptoria tritici",
    "measurement.units": "%",
    "Test A disease control rating": 0
  }
]

Now let's try a different one.
The reported value for COc1cc(OC)cc(-c2ncnc(OC)c2-c2c(F)cc(F)cc2F)c1 [Compound 51] in terms of Test A disease control rating is 0

----------
Tested on: Puccinia recondita f. sp. Tritici
Assay: Test B: preventive spray on wheat seedlings, wheat leaf rust disease rating
Format: in vivo
Conditions: 50 ppm, 100 = 100% disease control, 0 = no control
Test B disease control rating values, listed per item
Answer with a number only, understood to be in %.

Use these answered entries as a reference point.
[
  {
    "chemical.smiles": "Cc1c(-c2ccc(F)cc2Cl)c(-c2cc(Br)sc2Br)nn(C)c1=O",
    "measurement.units": "%",
    "Test B disease control rating": 80
  },
  {
    "chemical.smiles": "COc1cc(OC)cc(-c2ncnc(OC)c2-c2c(F)cc(F)cc2F)c1",
    "measurement.units": "%",
    "Test B disease control rating": 9
  },
  {
    "chemical.smiles": "CCn1c(-c2ccc(F)cc2Cl)c(-c2cc(OC)ccc2Cl)cc(C#N)c1=O",
    "measurement.units": "%",
    "Test B disease control rating": 100
  },
  {
    "chemical.smiles": "COc1cc(OC)cc(-c2c(-c3ccc(F)cc3F)noc(=O)c2C)c1",
    "measurement.units": "%",
    "Test B disease control rating": 55
  },
  {
    "chemical.smiles": "Cn1nc(-c2cccnc2)c(-c2c(F)cccc2F)cc1=O",
    "measurement.units": "%",
    "Test B disease control rating": 0
  },
  {
    "chemical.smiles": "Cc1c(-c2ccc(F)cc2Cl)c(-c2ccn(C)n2)nn(C)c1=O",
    "measurement.units": "%",
    "Test B disease control rating": 19
  },
  {
    "chemical.smiles": "COc1cc(OC)cc(-c2cc(C#N)c(=O)n(C)c2-c2ccc(F)cc2Cl)c1",
    "measurement.units": "%",
    "Test B disease control rating": 68
  },
  {
    "chemical.smiles": "COc1ccc(Cl)c(-c2nn(C)c(=O)c(C)c2-c2ccsc2C)c1",
    "measurement.units": "%",
    "Test B disease control rating": 92
  }
]

The reported value for COc1cc(OC)c(Cl)c(-n2nc(N)c(=O)c(C)c2-c2ccc(F)cc2Cl)c1 in terms of Test B disease control rating is 98

The reported value for COc1cc(OC)c(Br)c(-c2c(-c3ccc(F)cc3F)noc(=O)c2C)c1 in terms of Test B disease control rating is 100

The reported value for COc1cc(OC)c(Cl)c(-n2nc(CF)c(=O)c(C)c2-c2ccc(F)cc2Cl)c1 in terms of Test B disease control rating is 100

The reported value for COc1ccc(Cl)c(-n2nc(C)c(=O)c(Cl)c2-c2ccc(F)cc2Cl)c1 in terms of Test B disease control rating is 100

Origin of measurements: patent US20240308968A1
